Origin of values: ChEMBL document CHEMBL1135546

System: MT2
Assay: Inhibition of MT-2 cell growth by 5% or less over a 72 hr time period.
Assay type: functional, Homo sapiens
readout: CT5 (µM)
Record the value in µM, omitting the unit from your answer.

Suppose we examine the compound CCN(CC)C(=O)C(Cc1ccc(O)c(O)c1)C(Cc1ccc(O)c(O)c1)C(=O)O (centres undefined) ; what CT5 value has been reported? 93

Quick one: CT5 of CCCCCCCCCCNC(=O)C(Cc1ccc(O)c(O)c1)C(Cc1ccc(O)c(O)c1)C(=O)O (centres undefined) ? 34

Please give the measured CT5 for this compound: NC(=O)C(Cc1ccc(O)c(O)c1)C(Cc1ccc(O)c(O)c1)C(=O)O (centres undefined) 123

What measured CT5 goes with O=C(O)C(Cc1ccc(O)c(O)c1)C(Cc1ccc(O)c(O)c1)C(=O)O (stereo in doubt; 23b) ? 76

Quick one: CT5 of CC(=O)Oc1ccc(/C=C/C(=O)OC(C(=O)O)C(OC(=O)/C=C/c2ccc(OC(C)=O)c(OC(C)=O)c2)C(=O)O)cc1OC(C)=O (centres undefined) ? 18.6

Query (compound): O=C(O)C(=C\c1ccc(O)c(O)c1)/C(=C/c1ccc(O)c(O)c1)C(=O)O ; field requested: CT5 55

Please report the recorded CT5 for O=C(O)C(Cc1ccc(O)c(O)c1)C(Cc1ccc(O)c(O)c1)C(=O)O (stereo in doubt; 24b) . 71
